system: 156681-154-R-J1-PDC complex spheroid viability; test: Anticancer human tumor 156681-154-R-J1-PDC patient-derived melanoma cell line growth inhibition [CLK]; conditions: curve of first compound; second compound 3.16 µM;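 also: spheroids exposed to the agents for seven days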
Provide the reported IC50 of each item.

Fill in: 156681-154-R-J1-PDC complex spheroid viability IC50 for C=CC(=O)Nc1cc(Nc2nccc(-c3cn(C)c4ccccc34)n2)c(OC)cc1N(C)CCN(C)C + CN1CCN(c2cc(C(=O)Nc3cc4cc(-c5cnn(C)c5)ccc4cn3)ccn2)CC1 = < 0.000949 µM

Fill in: 156681-154-R-J1-PDC complex spheroid viability IC50 for CCc1c2c(nc3ccc(O)cc13)-c1cc3c(c(=O)n1C2)COC(=O)[C@]3(O)CC + CN1CCN(c2cc(C(=O)Nc3cc4cc(-c5cnn(C)c5)ccc4cn3)ccn2)CC1 = < 0.00316 µM

Fill in: 156681-154-R-J1-PDC complex spheroid viability IC50 for CC1COCCN1c1cc(C2(S(C)(=N)=O)CC2)nc(-c2ccnc3[nH]ccc23)n1 (centres undefined) + CNC(=O)c1ccc(Nc2nc(OC3CCCC3)c3c(-c4ccc5nc(C)oc5c4)c[nH]c3n2)c(OC)c1 = 0.166 µM

Fill in: 156681-154-R-J1-PDC complex spheroid viability IC50 for CCc1c2c(nc3ccc(O)cc13)-c1cc3c(c(=O)n1C2)COC(=O)[C@]3(O)CC + CNC(=O)c1ccc(Nc2nc(OC3CCCC3)c3c(-c4ccc5nc(C)oc5c4)c[nH]c3n2)c(OC)c1 = < 0.00316 µM

Fill in: 156681-154-R-J1-PDC complex spheroid viability IC50 for C=C(F)C(=O)N1CCN(c2nc(OCC3CCCN3C)nc3c2CCN(c2cccc4cccc(Cl)c24)C3)CC1CC#N (centres undefined) + CNC(=O)c1ccc(Nc2nc(OC3CCCC3)c3c(-c4ccc5nc(C)oc5c4)c[nH]c3n2)c(OC)c1 = < 0.0316 µM

Fill in: 156681-154-R-J1-PDC complex spheroid viability IC50 for COc1ccc([C@@H](O)c2cc(-c3ncnc4cc(N5CCOCC5)ccc34)c(F)cc2Cl)nn1 + CN1CCN(c2cc(C(=O)Nc3cc4cc(-c5cnn(C)c5)ccc4cn3)ccn2)CC1 = < 0.0316 µM

Fill in: 156681-154-R-J1-PDC complex spheroid viability IC50 for Cn1ncnc1[C@H]1c2n[nH]c(=O)c3cc(F)cc(c23)N[C@@H]1c1ccc(F)cc1 + CNC(=O)c1ccc(Nc2nc(OC3CCCC3)c3c(-c4ccc5nc(C)oc5c4)c[nH]c3n2)c(OC)c1 = < 0.000316 µM

Fill in: 156681-154-R-J1-PDC complex spheroid viability IC50 for O=c1[nH]cc(F)c(=O)[nH]1 + CN1CCN(c2cc(C(=O)Nc3cc4cc(-c5cnn(C)c5)ccc4cn3)ccn2)CC1 = < 0.0316 µM

Fill in: 156681-154-R-J1-PDC complex spheroid viability IC50 for CC1(C)CCC(CN2CCN(c3ccc(C(=O)NS(=O)(=O)c4ccc(NCC5CCOCC5)c([N+](=O)[O-])c4)c(Oc4cnc5[nH]ccc5c4)c3)CC2)=C(c2ccc(Cl)cc2)C1 + CN1CCN(c2cc(C(=O)Nc3cc4cc(-c5cnn(C)c5)ccc4cn3)ccn2)CC1 = < 0.0316 µM
